Just for reference, patent US20240384268A1 is where these values come from.

measurement-target: human TLR7 (Homo sapiens)
Construct: HA; host or cells: 293XL-hTLR7-HA (HEK293)
assay-info: HEK-TLR7 NF-κB-luciferase reporter, R848 stimulation
Assay type: cell-based
assay-context: ASO 500 nM; relative to R848 only, given as fraction
Measured TLR7 500 nM (averaged NF-κB-Luciferase level relative to R848 condition), listed per entry for reference.
assay-readout: TLR7 500 nM (averaged NF-κB-Luciferase level relative to R848 condition)

sequence-text | reported-measurement
GTCCCCTGTTGACTGG (antisense; LNA-modified, pattern not given here) [HPRT LNA-489 KL] | 0.123
TACTTTCCGAGGTGTC (antisense; LNA-modified, pattern not given here) [CAMSAP1-1739 LNA KL] | 0.451
ACTTCGTGGGGTCCTT (antisense; LNA-modified, pattern not given here) [HPRT LNA-663 V1] | 0.736
GCACTTCAGTCTGAGC (antisense; LNA-modified, pattern not given here) [MB21D1-719 LNA KL] | 0.168
GGTCTTGGCTTCGTGG (antisense; LNA-modified, pattern not given here) [MB21D1-523 LNA V1] | 0.042
CGTATTATAGCCGATT (antisense; LNA-modified, pattern not given here) [NC1 LNA PS 3-10-3] | 0.226
GAAAGGTTATGCAAGG (antisense; LNA-modified, pattern not given here) [CTNN2B-916 LNA KL] | 0.101
GGCTCGGCTTGCCTAC (antisense; LNA-modified, pattern not given here) [CAMSAP1-5594 LNA V1] | 0.186
GCACACTTCGTACCCA (antisense; LNA-modified, pattern not given here) [CAMSAP1-4915 LNA V1] | 0.221
TCCAACACTTCGTGGG (antisense; LNA-modified, pattern not given here) [HPRT LNA-669 V1] | 0.249
TGACTGTCTTGAGGGT (antisense; LNA-modified, pattern not given here) [MB21D1-1483 LNA KL] | 0.150
GTCAAGGGCATATCCT (antisense; LNA-modified, pattern not given here) [HPRT LNA-732 KL] | 0.142
AGGTCTTGGCTTCGTG (antisense; LNA-modified, pattern not given here) [MB21D1-524 LNA V1] | 0.050
CCTCCCATCTCCTTCA (antisense; LNA-modified, pattern not given here) [HPRT LNA-326 V1] | 0.843
TCGTGGGGTCCTTTTC (antisense; LNA-modified, pattern not given here) [HPRT LNA-660 V1] | 0.318
CCACATCCTGTGGCTC (antisense; LNA-modified, pattern not given here) [CAMSAP1-2906 LNA V1] | 0.363
TCCACAATCAAGACAT (antisense; LNA-modified, pattern not given here) [HPRT LNA-551 KL] | 0.533
AAAGGACTGAGGAAAG (antisense; LNA-modified, pattern not given here) [CAMSAP1-6273 LNA KL] | 0.267
CGGCCTCGGAAGCTCT (antisense; LNA-modified, pattern not given here) [MB21D1-168 LNA V1] | 0.139

* * *

measurement-target: human TLR9 (Homo sapiens)
Construct: HA; host or cells: 293XL-hTLR9-HA (HEK293)
assay-info: HEK-TLR9 NF-κB-luciferase reporter, ODN2006 stimulation
Assay type: cell-based
assay-context: ASO 100 nM; relative to ODN2006 only, given as fraction
Measured TLR9 100 nM (averaged NF-κB-Luciferase level relative to ODN2006 condition), listed per entry for reference.
assay-readout: TLR9 100 nM (averaged NF-κB-Luciferase level relative to ODN2006 condition)

sequence-text | reported-measurement
AGGACTCCAGATGTTT (antisense; LNA-modified, pattern not given here) [HPRT LNA pos cont] | 0.816
GACTATACGCGCAATA (antisense; LNA-modified, pattern not given here) [NC5 LNA PS 3-10-3] | 0.784
GTCTTCATCGGCCCTG (antisense; LNA-modified, pattern not given here) [CAMSAP1-2113 LNA V1] | 0.797

* * *

Measured TLR8 500 nM (averaged NF-κB-Luciferase level relative to R848 condition, fold increase), listed per entry for reference.
measurement-target: TLR8 (Homo sapiens, UniProt Q9NR97)
Sequence (Q9NR97 27-1041): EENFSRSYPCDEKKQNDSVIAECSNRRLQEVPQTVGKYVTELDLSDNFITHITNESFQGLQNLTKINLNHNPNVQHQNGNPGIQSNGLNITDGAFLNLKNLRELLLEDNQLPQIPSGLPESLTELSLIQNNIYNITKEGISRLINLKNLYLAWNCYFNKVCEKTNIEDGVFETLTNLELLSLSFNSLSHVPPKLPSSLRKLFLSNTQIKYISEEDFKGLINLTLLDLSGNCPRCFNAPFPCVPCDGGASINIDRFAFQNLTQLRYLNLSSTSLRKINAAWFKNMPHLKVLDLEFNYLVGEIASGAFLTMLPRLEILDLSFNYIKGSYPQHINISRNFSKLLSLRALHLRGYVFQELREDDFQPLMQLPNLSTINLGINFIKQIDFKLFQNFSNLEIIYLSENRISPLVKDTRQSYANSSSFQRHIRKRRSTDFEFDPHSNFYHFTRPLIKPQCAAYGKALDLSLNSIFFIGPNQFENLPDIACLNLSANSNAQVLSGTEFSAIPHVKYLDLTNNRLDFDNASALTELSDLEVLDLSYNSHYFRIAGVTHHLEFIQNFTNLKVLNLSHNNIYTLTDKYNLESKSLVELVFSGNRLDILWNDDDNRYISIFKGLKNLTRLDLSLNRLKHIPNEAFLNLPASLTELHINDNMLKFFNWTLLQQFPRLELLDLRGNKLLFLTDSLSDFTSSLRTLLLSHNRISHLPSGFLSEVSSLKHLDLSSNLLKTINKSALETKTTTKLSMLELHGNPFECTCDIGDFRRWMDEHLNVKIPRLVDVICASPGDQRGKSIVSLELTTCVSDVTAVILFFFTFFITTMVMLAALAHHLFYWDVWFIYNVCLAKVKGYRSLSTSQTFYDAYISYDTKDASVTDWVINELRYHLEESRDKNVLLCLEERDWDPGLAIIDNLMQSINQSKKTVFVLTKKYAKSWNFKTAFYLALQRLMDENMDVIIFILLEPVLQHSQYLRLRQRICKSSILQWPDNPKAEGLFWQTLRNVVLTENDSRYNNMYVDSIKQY
assay-info: HEK-TLR8 NF-κB-luciferase reporter, R848 or Motolimod stimulation (potentiation or inhibition)
Format: cell-based
Parameters: expressed in transfected cells; host or cells: 293XLhTLR8 (HEK293)
assay-context: ASO 500 nM; relative to R848 only
assay-readout: TLR8 500 nM (averaged NF-κB-Luciferase level relative to R848 condition, fold increase)

sequence-text | measurement-target | reported-measurement
TGTCTGGAAGCTTCCT (antisense; LNA-modified, pattern not given here) [CTNN2B-808 LNA V1] | TLR8 (Homo sapiens, UniProt Q9NR97) | 0.871
TTCAGGCGCTGCCTTG (antisense; LNA-modified, pattern not given here) [CAMSAP1-2709 LNA V1] | TLR8 (Homo sapiens, UniProt Q9NR97) | 0.764
CCACATCCTGTGGCTC (antisense; LNA-modified, pattern not given here) [CAMSAP1-2906 LNA V1] | TLR8 (Homo sapiens, UniProt Q9NR97) | 0.232

* * *

Measured TLR7 500 nM, listed per entry for reference.
measurement-target: human TLR7 (Homo sapiens, UniProt Q9NYK1)
Construct: HA; host or cells: 293XL-hTLR7-HA (HEK293)
Sequence (Q9NYK1 27-1049): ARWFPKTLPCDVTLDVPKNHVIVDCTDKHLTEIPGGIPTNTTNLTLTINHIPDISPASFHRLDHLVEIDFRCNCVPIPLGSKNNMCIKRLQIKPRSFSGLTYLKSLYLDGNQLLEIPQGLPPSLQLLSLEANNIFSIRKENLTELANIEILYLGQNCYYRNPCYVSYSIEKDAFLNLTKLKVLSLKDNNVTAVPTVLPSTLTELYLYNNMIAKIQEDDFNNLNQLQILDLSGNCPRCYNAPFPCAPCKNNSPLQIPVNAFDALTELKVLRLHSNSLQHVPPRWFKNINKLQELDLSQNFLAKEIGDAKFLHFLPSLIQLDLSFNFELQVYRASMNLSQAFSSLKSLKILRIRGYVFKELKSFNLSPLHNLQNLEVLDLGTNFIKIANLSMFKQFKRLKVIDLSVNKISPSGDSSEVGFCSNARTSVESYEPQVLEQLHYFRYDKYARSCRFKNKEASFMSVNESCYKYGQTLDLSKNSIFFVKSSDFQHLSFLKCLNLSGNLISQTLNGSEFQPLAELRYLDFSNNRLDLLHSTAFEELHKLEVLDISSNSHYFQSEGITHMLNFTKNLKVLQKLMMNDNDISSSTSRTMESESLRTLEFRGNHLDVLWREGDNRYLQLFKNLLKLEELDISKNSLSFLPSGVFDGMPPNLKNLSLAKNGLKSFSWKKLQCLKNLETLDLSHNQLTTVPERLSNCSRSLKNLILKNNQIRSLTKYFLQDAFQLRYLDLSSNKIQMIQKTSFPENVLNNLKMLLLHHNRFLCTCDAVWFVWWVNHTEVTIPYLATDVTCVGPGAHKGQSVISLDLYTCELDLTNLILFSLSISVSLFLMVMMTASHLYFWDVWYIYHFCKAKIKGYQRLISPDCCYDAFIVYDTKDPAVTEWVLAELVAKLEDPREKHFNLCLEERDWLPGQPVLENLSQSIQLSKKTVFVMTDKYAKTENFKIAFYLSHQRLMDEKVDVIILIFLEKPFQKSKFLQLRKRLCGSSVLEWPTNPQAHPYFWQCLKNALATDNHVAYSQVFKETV
assay-info: HEK-TLR7 NF-κB-luciferase reporter, R848 stimulation
Format: cell-based
assay-context: MOE-modified ASO at 500 nM; averaged NF-κB-Luciferase relative to R848 condition
assay-readout: TLR7 500 nM

sequence-text | reported-measurement
GGGAAAGGTTATGCAAGGTC (antisense; 2'-MOE modified, pattern not given here) [CTNN2B-916 MOE] | 0.163
GTCCTTGCACGTGGCTTCGT (antisense; 2'-MOE modified, pattern not given here) [EGFR-1013 MOE] | 0.088
GCGTGTCTGGAAGCTTCCTT (antisense; 2'-MOE modified, pattern not given here) [CTNN2B-809 MOE] | 0.134
TCAAAGGACTGAGGAAAGGG (antisense; 2'-MOE modified, pattern not given here) [CAMSAP1-6273 MOE] | 0.189
AGGTCTTGGCTTCGTGGAGC (antisense; 2'-MOE modified, pattern not given here) [MB21D1-522 MOE] | 0.150
ACTGACTGTCTTGAGGGTTC (antisense; 2'-MOE modified, pattern not given here) [MB21D1-1483 MOE] | 0.299
GTGTCTTCATCGGCCCTGCC (antisense; 2'-MOE modified, pattern not given here) [CAMSAP1-2113 MOE] | 0.132
AACACTTCGTGGGGTCCTTT (antisense; 2'-MOE modified, pattern not given here) [HPRT-664 MOE] | 0.226
GAGTCTCTGGAGCTTCCTCT (antisense; 2'-MOE modified, pattern not given here) [CAMSAP1-2456 MOE] | 0.170
GATGCTCCTCGGTCTCCCTT (antisense; 2'-MOE modified, pattern not given here) [CAMSAP1-1850 MOE] | 0.199

* * *

Measured TLR9 100 nM (averaged NF-κB-Luciferase level relative to ODN2006 condition), listed per entry for reference.
measurement-target: human TLR9 (Homo sapiens, UniProt Q9NR96)
Construct: HA; host or cells: 293XL-hTLR9-HA (HEK293)
Sequence (Q9NR96 26-1032): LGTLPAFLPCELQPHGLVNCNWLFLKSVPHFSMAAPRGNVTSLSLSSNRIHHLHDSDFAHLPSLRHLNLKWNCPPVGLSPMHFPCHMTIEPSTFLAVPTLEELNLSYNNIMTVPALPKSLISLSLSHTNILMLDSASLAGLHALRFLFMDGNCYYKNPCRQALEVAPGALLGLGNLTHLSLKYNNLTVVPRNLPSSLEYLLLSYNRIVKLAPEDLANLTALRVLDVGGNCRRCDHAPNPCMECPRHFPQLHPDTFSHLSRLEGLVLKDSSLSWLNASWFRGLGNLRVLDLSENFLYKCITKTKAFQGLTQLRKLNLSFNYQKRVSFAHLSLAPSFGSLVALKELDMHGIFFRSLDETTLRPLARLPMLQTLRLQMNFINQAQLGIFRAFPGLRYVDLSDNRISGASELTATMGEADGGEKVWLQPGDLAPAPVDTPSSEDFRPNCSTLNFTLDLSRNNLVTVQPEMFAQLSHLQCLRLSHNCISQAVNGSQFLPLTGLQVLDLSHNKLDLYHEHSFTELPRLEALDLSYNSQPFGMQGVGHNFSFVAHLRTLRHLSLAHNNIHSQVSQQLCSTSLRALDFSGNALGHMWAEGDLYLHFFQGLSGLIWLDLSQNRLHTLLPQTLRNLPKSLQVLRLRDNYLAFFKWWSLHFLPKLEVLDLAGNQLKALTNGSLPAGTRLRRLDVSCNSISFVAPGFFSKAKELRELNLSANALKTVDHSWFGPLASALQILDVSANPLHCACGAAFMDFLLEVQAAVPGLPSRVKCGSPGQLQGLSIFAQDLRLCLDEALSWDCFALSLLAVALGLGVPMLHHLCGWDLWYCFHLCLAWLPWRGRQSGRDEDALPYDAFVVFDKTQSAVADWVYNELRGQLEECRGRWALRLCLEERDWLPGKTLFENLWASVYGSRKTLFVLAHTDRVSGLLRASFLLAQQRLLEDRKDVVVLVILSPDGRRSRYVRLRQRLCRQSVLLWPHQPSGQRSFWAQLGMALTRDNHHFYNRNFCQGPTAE
assay-info: HEK-TLR9 NF-κB-luciferase reporter, ODN2006 stimulation
Type: cell-based
assay-context: ASO 100 nM; relative to ODN2006 only, given as fraction
assay-readout: TLR9 100 nM (averaged NF-κB-Luciferase level relative to ODN2006 condition)

sequence-text | reported-measurement
CGTATTATAGCCGATT (antisense; LNA-modified, pattern not given here) [NC1 LNA PS 3-10-3] | 0.933
ATGTGATGGCCTCCCA (antisense; LNA-modified, pattern not given here) [HPRT LNA-335 V1] | 0.776
AAAGGACTGAGGAAAG (antisense; LNA-modified, pattern not given here) [CAMSAP1-6273 LNA KL] | 0.780
AGTGTTGAGATACTCG (antisense; LNA-modified, pattern not given here) [EGFR-3652 LNA KL] | 0.982
TCTTCATCGGCCCTGC (antisense; LNA-modified, pattern not given here) [CAMSAP1-2112 LNA V1] | 0.921
TTCGTGGGGTCCTTTT (antisense; LNA-modified, pattern not given here) [HPRT LNA-661 V1] | 0.963
AGGCCCTTCGCACTTC (antisense; LNA-modified, pattern not given here) [EGFR-1225 LNA V1] | 0.576
CCTTGCACGTGGCTTC (antisense; LNA-modified, pattern not given here) [EGFR-1013 LNA V1] | 0.814
TGACTGTCTTGAGGGT (antisense; LNA-modified, pattern not given here) [MB21D1-1483 LNA KL] | 1.245
GCATCCACCACGTCGT (antisense; LNA-modified, pattern not given here) [EGFR-3267 LNA V1] | 0.556
TCCTTGCACGTGGCTT (antisense; LNA-modified, pattern not given here) [EGFR-1014 LNA V1] | 1.152
